- System: parental HEK cells
- Method notes: HEK parental Agonist Counterscreen Assay (non-transfected cells)
- Assay type: cell-based
- Stated conditions: HEK Agonist Activity; activity relative to known control
// classify: if (Averaged Max % Response (±St. Dev.) < 10%) Fulfilled else Not fulfilled

[
  {
    "Compound": "CN(Cc1cccs1)C(=O)CN1C(=O)NC(C)(c2ccc3c(c2)OCO3)C1=O (stereo not shown)",
    "Category": "Fulfilled"
  },
  {
    "Compound": "CCn1c(=O)n(CC(=O)NCC2COc3ccccc3O2)c(=O)c2ccccc21 (stereo not shown)",
    "Category": "Fulfilled"
  },
  {
    "Compound": "CC(Oc1ccc(O)cc1Cl)C(=O)NNC(=O)c1cccc(F)c1 (stereo not shown)",
    "Category": "Not fulfilled"
  },
  {
    "Compound": "Cc1cc(Cl)ccc1OCC(=O)NNC(=O)C1CC1c1ccccc1 (stereo not shown)",
    "Category": "Fulfilled"
  },
  {
    "Compound": "CCc1nn(CC(=O)NCc2cccc(Br)c2)c(=O)c2cc3occc3n12",
    "Category": "Not fulfilled"
  }
]

Below: the item to evaluate.
Problem: For the compound "O=C(CN1CCCN(Cc2ccc(F)cc2Cl)C1=O)NC1CCCCCC1" , is Averaged Max % Response (±St. Dev.) under 10%?
Fulfilled

---

- Target entity: GPR139 (Homo sapiens)
- Sequence (Q6DWJ6 1-353): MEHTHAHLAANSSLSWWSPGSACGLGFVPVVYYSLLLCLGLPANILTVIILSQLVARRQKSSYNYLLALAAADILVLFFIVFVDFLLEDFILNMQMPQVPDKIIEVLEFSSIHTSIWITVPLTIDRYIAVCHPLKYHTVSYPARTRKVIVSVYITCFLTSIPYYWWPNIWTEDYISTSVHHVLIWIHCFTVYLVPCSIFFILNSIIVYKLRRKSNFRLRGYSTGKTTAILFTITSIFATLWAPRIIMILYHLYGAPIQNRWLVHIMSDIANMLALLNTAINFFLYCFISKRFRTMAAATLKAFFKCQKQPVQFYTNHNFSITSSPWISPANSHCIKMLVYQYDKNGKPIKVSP
- Method notes: GPR139 Agonist titration / agonist counterscreen assay (calcium detection, HEK-GPR139 cells)
- Format: cell-based
- Design: expressed in transfected cells; host or cells: HEK Aequorin cells, Maxcyte transient transfection
- Stated conditions: GPR139 Agonist Activity
- Experimental: GPR activity was assessed using a calcium detection assay. […] Negative control samples were treated with DMSO. […] Intracellular calcium was measured using Calcium 5.
Class key for Hill Slope values: bin A: < 0.9; bin B: ≥ 0.9 and < 1; bin C: ≥ 1

[
  {
    "Compound": "CCCC(=O)C1CCC(C(=O)CC2CCC(c3ccc(C(C)O)cc3)C2=O)CC1 (stereo not drawn) [SR-01000924775]",
    "Category": "bin A"
  },
  {
    "Compound": "O=C(CNc1nnc(CCCOc2ccc(Cl)cc2Cl)o1)Nc1nccs1 [SR-01000280669]",
    "Category": "bin A"
  },
  {
    "Compound": "COc1ccc(CCn2nc(-c3cccnc3)[nH]c2=O)cc1 [SR-01000335115]",
    "Category": "bin C"
  },
  {
    "Compound": "COc1cc(C(=O)NNC(=O)CSc2ccc(C)cc2)cc(OC)c1C [SR-01000070170]",
    "Category": "bin B"
  },
  {
    "Compound": "O=C(CCc1nc2ccccc2s1)NNC(=O)CSc1ccccc1F [SR-01000069574]",
    "Category": "bin B"
  },
  {
    "Compound": "COc1cccc(CNC(=O)Nc2ccc(-c3ccncc3)cc2)c1.O=C(O)C(F)(F)F [SR-00000007266]",
    "Category": "bin C"
  }
]

Which bin should I file CCC(=O)NNC(=O)C(C)Oc1ccc(Cl)cc1Cl (stereo not drawn) [SR-01000316982] under?
bin C

Which bin should I file CCOC(=O)N1CCC2=C(CC(NC(=O)Cc3cccc4ccccc34)=C2C(C)=O)C1 [SR-01000011241] under?
bin C

Which bin should I file COc1ccc2c(CC(=O)NNC(=O)c3cc(-c4ccccc4)no3)coc2c1 [SR-01000074979] under?
bin A

Which bin should I file Cc1ccccc1SCC(=O)NNC(=O)C1CCCCC1 [SR-01000070173] under?
bin A

Which bin should I file O=C(CNC(=O)c1ccc(Br)o1)NC1CCCc2ccccc21 (stereo not drawn) [SR-01000064101] under?
bin C

Which bin should I file CNc1ccc(CCNC(=O)Cn2c3ccccc3c3nc(=O)cc(C)n32)cc1 [SR-01000139601] under?
bin A

Which bin should I file Cc1ccc(CC2CCC(CC(=O)CC3CCCCCCC3)C2=O)cc1 (stereo not drawn) [SR-01000151470] under?
bin C

---

- Target entity: GPR139 (Homo sapiens)
- Sequence (Q6DWJ6 1-353): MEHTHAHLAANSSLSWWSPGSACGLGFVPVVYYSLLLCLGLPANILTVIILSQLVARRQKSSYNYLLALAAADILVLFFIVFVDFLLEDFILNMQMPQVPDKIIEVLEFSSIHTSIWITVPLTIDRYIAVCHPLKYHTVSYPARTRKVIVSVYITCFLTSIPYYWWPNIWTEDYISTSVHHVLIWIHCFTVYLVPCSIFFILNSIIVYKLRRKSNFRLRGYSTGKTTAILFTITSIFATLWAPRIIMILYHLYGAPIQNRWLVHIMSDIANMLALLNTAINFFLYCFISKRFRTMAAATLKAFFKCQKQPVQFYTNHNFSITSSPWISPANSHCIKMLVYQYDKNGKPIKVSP
- Method notes: GPR139 Agonist titration / agonist counterscreen assay (calcium detection, HEK-GPR139 cells)
- Format: cell-based
- Set-up: expressed in transfected cells; host or cells: HEK Aequorin cells, Maxcyte transient transfection
- Stated conditions: GPR139 Agonist Activity; fitted dose-response curve
Cut-off 0.5 on Hill Slope, inclusive. At or above means t; below means f.

These recorded examples may help you get a feel for the data.
[
  {
    "Compound": "CC(C)(C)CN1CCNC(=O)C1CC(=O)NCCc1cnn(-c2ccccc2)c1 (stereo not drawn)",
    "Target entity": "GPR139 (Homo sapiens)",
    "Category": "f"
  },
  {
    "Compound": "O=C(CSc1ccc(Cl)cc1)NNC(=O)c1ccc(O)cc1",
    "Target entity": "GPR139 (Homo sapiens)",
    "Category": "t"
  },
  {
    "Compound": "CC(C)C1CC(=O)[C@@H]2C[C@@H](CC2C(=O)CC2CCOc3ccccc3C2)C2C=CC(=C2)CCC(=O)[C@@H](Cc2ccccc2)NC1=O (stereo partly drawn)",
    "Target entity": "GPR139 (Homo sapiens)",
    "Category": "t"
  },
  {
    "Compound": "COP(=O)(CN(CCc1ccc(Cl)cc1)C(=O)Nc1ccc(Cl)c(Cl)c1)OC",
    "Target entity": "GPR139 (Homo sapiens)",
    "Category": "f"
  },
  {
    "Compound": "Cc1ccccc1SCC(=O)NNC(=O)c1ccc(Br)s1",
    "Target entity": "GPR139 (Homo sapiens)",
    "Category": "t"
  },
  {
    "Compound": "Cc1ccc(CN2CCCN(CC(=O)NC3CCCCCCC3)C2=O)c(Cl)c1",
    "Target entity": "GPR139 (Homo sapiens)",
    "Category": "t"
  },
  {
    "Compound": "O=C(Cn1nnc(-c2ccccc2)n1)NNC(=O)Cn1c(C(F)(F)F)nc2ccccc21",
    "Target entity": "GPR139 (Homo sapiens)",
    "Category": "t"
  },
  {
    "Compound": "O=C(CCCOc1ccc(Cl)cc1Cl)NNC(=O)Cc1ccc2c(c1)OCCO2",
    "Target entity": "GPR139 (Homo sapiens)",
    "Category": "t"
  }
]

Does the reported Hill Slope for COc1cccc(C(=O)NNC(=O)C(C)Oc2ccc(Cl)cc2Cl)c1 (stereo not drawn) fall at or above the 0.5 mark?
f

Does the reported Hill Slope for O=C(NCc1csc(-c2cccs2)n1)C1CC(Cc2ccc3c(c2)OCO3)=NO1 (stereo not drawn) fall at or above the 0.5 mark?
t

Does the reported Hill Slope for Cc1ccc(S(=O)(=O)NC(=O)NC(C)Cc2ccccc2)cc1 (stereo not drawn) fall at or above the 0.5 mark?
t

---

- Target entity: GPR139 (Homo sapiens)
- Method notes: GPR139 Agonist titration / agonist counterscreen assay (calcium detection, HEK-GPR139 cells)
- Format: cell-based
- Set-up: expressed in transfected cells; host or cells: HEK Aequorin cells, Maxcyte transient transfection
- Stated conditions: GPR139 Agonist Activity; fitted dose-response curve
Cut-off 0.8 on Hill Slope, inclusive. At or above means T; below means F.

These recorded examples may help you get a feel for the data.
[
  {
    "Molecule": "Cc1cc(Cl)ccc1OCC(=O)NNC(=O)C1CC1c1ccccc1 (stereo not drawn) [SR-01000317486]",
    "Category": "T"
  },
  {
    "Molecule": "CC1(c2ccc3ccccc3c2)NC(=O)N(CC(=O)Nc2ccccc2Cl)C1=O (stereo not drawn) [SR-01000066950]",
    "Category": "F"
  }
]

Does the reported Hill Slope for Cc1ccc(NC(=O)NNC(=O)COc2ccc(Cl)cc2)c(C)c1 [SR-01000309617] fall at or above the 0.8 mark?
F

Does the reported Hill Slope for Cc1ccc(SCC(=O)NNC(=O)CCC(=O)c2cccs2)cc1 [SR-01000069391] fall at or above the 0.8 mark?
F

Does the reported Hill Slope for COc1ccc(C2=NN(CC(=O)NCCCN(C)c3ccccc3)C(=O)CC2)cc1 [SR-01000145949] fall at or above the 0.8 mark?
T

Does the reported Hill Slope for COc1ccc(CCNC(=O)c2ccnc(N3CCN(Cc4ccc5c(c4)OCO5)CC3)c2)cc1 [SR-01000654192] fall at or above the 0.8 mark?
T

Does the reported Hill Slope for CC(C)(C)OC(=O)NNC(=O)COCc1ccc(Cl)c(Cl)c1 [SR-01000074687] fall at or above the 0.8 mark?
F
